Sourced from patent US20240174657A1

Molecular target: CYP2C9 (Homo sapiens, UniProt P11712)
Construct: using isoform-specific substrates incubated with human liver microsomes; tissue Eurofins protocol ITEMG232; host or cells: human liver microsomes
Sequence (P11712 whole entry, canonical isoform): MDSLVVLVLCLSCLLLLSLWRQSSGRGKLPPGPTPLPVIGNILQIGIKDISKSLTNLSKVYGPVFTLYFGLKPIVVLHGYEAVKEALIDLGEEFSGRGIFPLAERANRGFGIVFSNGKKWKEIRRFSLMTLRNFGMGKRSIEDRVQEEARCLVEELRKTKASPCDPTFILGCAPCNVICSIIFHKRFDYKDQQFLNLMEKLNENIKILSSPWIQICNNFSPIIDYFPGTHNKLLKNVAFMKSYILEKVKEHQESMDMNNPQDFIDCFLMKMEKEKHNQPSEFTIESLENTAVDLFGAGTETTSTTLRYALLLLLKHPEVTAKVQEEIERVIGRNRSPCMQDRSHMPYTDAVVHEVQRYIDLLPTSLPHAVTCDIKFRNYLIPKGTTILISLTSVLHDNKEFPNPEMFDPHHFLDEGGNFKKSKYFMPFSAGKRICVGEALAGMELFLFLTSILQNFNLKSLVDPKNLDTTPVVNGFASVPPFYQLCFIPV
Test: CYP inhibition in human liver microsomes, diclofenac substrate
Format: in vitro ADME
Settings: probe diclofenac, read-out: CYP2C9 Inh %
Observable: inhibition at 10 µM (%)
Reply numerically in %, unit not repeated.

> print(dat)
                                   molecule  readout.units  readout.number
1  Cc1nccn1Cc1ccc(-c2cc(CC(C)C)sc2S(=O)(=O)NC(=O)NCCCO)cc1F [Example 2]              %            16.5

Please indicate inhibition at 10 µM recorded for CC(C)Cc1cc(-c2ccc(Cn3ccnc3C(C)(C)C)c(F)c2)c(S(=O)(=O)NC(=O)NCCO)s1 [Example 6]
11.5

Please indicate inhibition at 10 µM recorded for Cc1nccn1Cc1ccc(-c2cc(CC(C)C)sc2S(=O)(=O)NC(=O)NCCO)c(F)c1 [Example 4]
11.9

Please indicate inhibition at 10 µM recorded for CC(C)Cc1cc(-c2ccc(Cn3ccnc3C(C)(C)C)c(F)c2)c(S(=O)(=O)NC(=O)NCC(C)(C)O)s1 [Example 7]
9.9

Please indicate inhibition at 10 µM recorded for Cc1nccn1Cc1c(F)cc(-c2cc(CC(C)C)sc2S(=O)(=O)NC(=O)NCCO)cc1F [Example 5]
38
